Reference source: patent US8815796B2

Biological target: HCV NS3-4A protease (Hepatitis C virus genotype 1a, UniProt P27958)
Construct: HCV NS3-4A protease
Sequence (P27958 1027-1657): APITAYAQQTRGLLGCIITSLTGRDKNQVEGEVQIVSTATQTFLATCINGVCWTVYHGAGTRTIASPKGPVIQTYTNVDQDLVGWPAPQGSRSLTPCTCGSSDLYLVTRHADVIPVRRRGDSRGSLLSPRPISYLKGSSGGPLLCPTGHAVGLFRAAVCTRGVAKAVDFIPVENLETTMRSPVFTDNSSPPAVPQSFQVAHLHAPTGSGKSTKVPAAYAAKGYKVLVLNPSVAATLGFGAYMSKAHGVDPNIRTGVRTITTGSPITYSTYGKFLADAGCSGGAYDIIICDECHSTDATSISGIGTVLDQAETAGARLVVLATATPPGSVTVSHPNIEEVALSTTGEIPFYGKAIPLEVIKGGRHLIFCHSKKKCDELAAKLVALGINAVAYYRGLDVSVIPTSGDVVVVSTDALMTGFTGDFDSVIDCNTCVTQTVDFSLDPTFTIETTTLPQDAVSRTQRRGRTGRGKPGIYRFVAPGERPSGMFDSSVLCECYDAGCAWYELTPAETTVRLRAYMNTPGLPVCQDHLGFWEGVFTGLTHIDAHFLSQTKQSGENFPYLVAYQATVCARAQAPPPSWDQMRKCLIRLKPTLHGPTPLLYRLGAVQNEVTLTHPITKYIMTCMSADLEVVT
Sequence (P27958 1658-1711): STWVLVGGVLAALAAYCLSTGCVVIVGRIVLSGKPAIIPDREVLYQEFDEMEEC
Test: HCV NS3-4A protease assay in vitro (FRET-S substrate)
Format: biochemical
measured-endpoint: IC50

Solved cases (4 shown):
compound	test-target	measured-endpoint	result
CCC[C@H](NC(=O)C1C[C@@H](OC(=O)N2Cc3cc4c(cc3C2)OCCO4)CN1C(=O)[C@@H](NC(=O)[C@@H](NC(=O)c1cnccn1)C1CCCCC1)C(C)(C)C)C(=O)C(=O)NC1CC1 (some centres unmarked) [Compound 33b]	HCV NS3-4A protease (Hepatitis C virus genotype 1a, UniProt P27958)	IC50	30 to 200 nM
C=C[C@H]1C[C@@]1(NC(=O)C1C[C@@H](OC(=O)N2Cc3cc4c(cc3C2)OCCCO4)CN1C(=O)[C@@H](NC(=O)[C@@H](NC(=O)c1cnccn1)C1CCCCC1)C(C)(C)C)C(=O)NS(=O)(=O)C1CC1 (some centres unmarked) [Compound 30g]	HCV NS3-4A protease (Hepatitis C virus genotype 1a, UniProt P27958)	IC50	< 30 nM
C=C[C@H]1C[C@@]1(NC(=O)C1C[C@@H](OC(=O)N2Cc3ccc4c(c3C2)OCO4)CN1C(=O)[C@@H](NC(=O)[C@@H](NC(=O)c1cnccn1)C1CCCCC1)C(C)(C)C)C(=O)NS(=O)(=O)C1CC1 (some centres unmarked) [Compound 30e]	HCV NS3-4A protease (Hepatitis C virus genotype 1a, UniProt P27958)	IC50	< 30 nM
CCC[C@H](NC(=O)C1C[C@@H](OC(=O)N2Cc3cc4c(cc3C2)OCO4)CN1C(=O)[C@@H](NC(=O)[C@@H](NC(=O)c1cnccn1)C1CCCCC1)C(C)(C)C)C(=O)C(=O)NC1CC1 (some centres unmarked) [Compound 33a]	HCV NS3-4A protease (Hepatitis C virus genotype 1a, UniProt P27958)	IC50	30 to 200 nM

# ---- query compound ----
Ask | Fill blank: measured IC50 of the compound CCOC(=O)N[C@H](C(=O)N[C@H](C(=O)N1C[C@H](OC(=O)N2Cc3cc4c(cc3C2)OCO4)CC1C(=O)N[C@@]1(C(=O)NS(=O)(=O)C2CC2)C[C@@H]1CC)C(C)(C)C)C1CCCCC1 (some centres unmarked) [Compound 30v] is ____.
Reply | < 30 nM

----------
Target: HCV NS3-4A protease (Hepatitis C virus genotype 1a)
Construct: HCV NS3-4A protease
Experiment: HCV NS3-4A protease assay in vitro (FRET-S substrate)
Assay type: biochemical
pIC50: −log10 of the molar value.
Recorded pIC50 by entry

Solved cases (2 shown):
compound	pIC50
C=C[C@H]1C[C@@]1(NC(=O)C1C[C@@H](OC(=O)N2Cc3cc4c(cc3C2)OCCO4)CN1C(=O)[C@@H](NC(=O)[C@@H](NC(=O)c1cnccn1)C1CCCCC1)C(C)(C)C)C(=O)NS(=O)(=O)C1CC1 (stereo partly drawn) [Compound 30c]	> 7.52
CCC[C@H](NC(=O)C1C[C@@H](OC(=O)N2Cc3ccc4c(c3C2)OCO4)CN1C(=O)[C@@H](NC(=O)[C@@H](NC(=O)c1cnccn1)C1CCCCC1)C(C)(C)C)C(=O)C(=O)NC1CC1 (stereo partly drawn) [Compound 33c]	6.70 to 7.52

# ---- query compound ----
Ask | Fill blank: measured pIC50 of the compound CC[C@H]1C[C@@]1(NC(=O)C1C[C@@H](OC(=O)N2Cc3cc4c(cc3C2)OCO4)CN1C(=O)[C@@H](NC(=O)[C@@H](NC(=O)OC)C1CCCCC1)C(C)(C)C)C(=O)NS(=O)(=O)C1CC1 (stereo partly drawn) [Compound 30x] is ____.
Reply | > 7.52
